Data origin, for the record: paper PMC6154737

test: Cytotoxicity on L929 fibroblasts (MTT assay)
Format: cell-based
condition: mouse, L929 fibroblast cells; 100 µg mL^−1, 24 h, MTT; mean ± SD
API: label(entry) gives criterion met if the entry's viability at 24 h, 100 µg mL^−1 is strictly smaller than 70%; on equality or larger values it gives criterion not met.

# molecule, cat
measured = [
    ("Cc1ccc(C(C)C)cc1O", "criterion met"),
    ("CC1=CCC2C(C1)C2(C)C (centres unmarked) [Compound 3-Carene, 4,7,7-trimethylbicyclo[4.1.0]hept-3-ene]", "criterion met"),
    ("C=CCc1ccc(O)c(OC)c1", "criterion met"),
    ("C=C[C@](C)(O)CCC=C(C)C [(−)-Linalool, (3R)-3,7-dimethylocta-1,6-dien-3-ol]", "criterion met"),
    ("CC(C)[C@@H]1CC[C@@H](C)C[C@H]1O [(−)-Menthol]", "criterion not met"),
    ("CC1(C)[C@@H]2CC[C@@]1(C)[C@H](O)C2", "criterion not met"),
    ("Cc1ccc(C(C)C)cc1", "criterion not met"),
    ("Cc1ccc(C(C)C)c(O)c1", "criterion met"),
]
